This collection of values is drawn from the supplement of paper PMC10567573.

B1: NCK2 (parent)
chain: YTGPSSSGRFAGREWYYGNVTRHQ

variants of: B1; assay: protein stability index of a GFP-peptide fusion (GPS, HEK-293T) (PSI 1-6); higher = more stable; settings: c terminus: a fixed tail appended;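 note: lentivirally expressed fusions sorted by FACS into six bins by GFP to DsRed ratio, PSI derived from sequencing read proportions per bin multiplied by bin number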
Field: protein stability index. Provide a value for each of the variants that follow.
Numbers only.

Reported protein stability index for YTGPSSSGRFAGREWYYGNVVRHQ : what is it?
2.64

// each variant listed below needs its protein stability index
1. YTGRSSSGRFAGREWYYGNVTRHQ
2. YTGPSSSGRFAGREWYYGNVPRHQ
3. YTGPSSSGRFAGREWYYRNVTRHQ
4. YTGPSSSGRFDGREWYYGNVTRHQ
5. YTGPRSSGRFAGREWYYGNVTRHQ

3.61
2.06
2.44
1.95
2.03

Give one value of protein stability index per listed variant.
1. YTGPSSSGRFLGREWYYGNVTRHQ
2. YTGPSSSGRFAGRIWYYGNVTRHQ
3. YTGPSSSGRFAGREWIYGNVTRHQ
4. YTGPSSSMRFAGREWYYGNVTRHQ
5. ETGPSSSGRFAGREWYYGNVTRHQ
6. YTGPSSSGRFAGREWYYGNVTRSQ
7. YTGPSSSGRFANREWYYGNVTRHQ
8. YTGPSSSGRFAFREWYYGNVTRHQ

1: 2.02; 2: 1.58; 3: 2.19; 4: 1.68; 5: 3.28; 6: 1.79; 7: 3.14; 8: 2.45

Look up protein stability index for the entries below, preserving their order.
1. YTGPSSSGRFAGREWYYGNGTRHQ
2. YTGPSSSGRDAGREWYYGNVTRHQ
3. YQGPSSSGRFAGREWYYGNVTRHQ
4. YTGPSSSGRFAGREWVYGNVTRHQ
5. YTGPSSSGRFAGREWYYGKVTRHQ

2.57
1.93
1.5
1.5
1.38

I'm hoping you can list protein stability index for every variant here, please.
1. YTGPSSSGRFAGRESYYGNVTRHQ
2. YTGPSSSGRFAGRQWYYGNVTRHQ
3. YTGPSSSGRFAGREWYYGNVTRQQ
4. YTGPSSSGRFAGREWYYGNVTWHQ

1.5
2.09
1.31
1.61

Batch of 8 variants: report protein stability index for each.
1. YTGPSSSGRFAGREWYYGNVTRDQ
2. YTGNSSSGRFAGREWYYGNVTRHQ
3. YTGPSSSGRFAGREWYYSNVTRHQ
4. YTGPSSSGRFAGREWYYGNVTRHP
5. YTGPSSSGRFEGREWYYGNVTRHQ
6. YTGPSSSGRFAGREWYAGNVTRHQ
7. YTGPSSSCRFAGREWYYGNVTRHQ
8. YTGPSSHGRFAGREWYYGNVTRHQ

1. 2.52
2. 2.32
3. 2.99
4. 2.07
5. 2.04
6. 2.11
7. 2.32
8. 1.85

Need protein stability index for each of these variants.
1. YTGPSSSGRFAGVEWYYGNVTRHQ
2. YTGPSSSYRFAGREWYYGNVTRHQ
3. YTGISSSGRFAGREWYYGNVTRHQ
4. YAGPSSSGRFAGREWYYGNVTRHQ
5. YTGPSSSGRCAGREWYYGNVTRHQ
6. YTGPSSSGRFAGREWYYGNVTRYQ
7. YTGPSSSGRFAGRHWYYGNVTRHQ
8. YTGPSSSGRFAGRERYYGNVTRHQ

2.44
2.22
1.03
2.62
1.44
1.42
2.69
2.35

For each of the variants below, note its protein stability index.
1. YTGPSSSGRFAQREWYYGNVTRHQ
2. YTGPSSSGRFAGREWYYGNVIRHQ
3. YTGPSSSGRFAGREWYYGNVTRVQ
4. YTGPSSSKRFAGREWYYGNVTRHQ
5. YTGPSSSGRFAGREFYYGNVTRHQ
6. YTGPSSSGRFAGREWYYGNVTRAQ

2.09
1.87
1.56
1.82
2.19
2.86

State the recorded protein stability index for this entry: YTGPSQSGRFAGREWYYGNVTRHQ
2.22
